Where these numbers come from: patent US20100022656A1

Biological target: β2-receptor (Cavia porcellus)
Construct: Trachea was removed and cut from thyroid cartilage to trachea crotch; from tissue; host or cells: guinea pig (Hartley) isolated trachea strips
Sequence (Q8K4Z4 whole entry): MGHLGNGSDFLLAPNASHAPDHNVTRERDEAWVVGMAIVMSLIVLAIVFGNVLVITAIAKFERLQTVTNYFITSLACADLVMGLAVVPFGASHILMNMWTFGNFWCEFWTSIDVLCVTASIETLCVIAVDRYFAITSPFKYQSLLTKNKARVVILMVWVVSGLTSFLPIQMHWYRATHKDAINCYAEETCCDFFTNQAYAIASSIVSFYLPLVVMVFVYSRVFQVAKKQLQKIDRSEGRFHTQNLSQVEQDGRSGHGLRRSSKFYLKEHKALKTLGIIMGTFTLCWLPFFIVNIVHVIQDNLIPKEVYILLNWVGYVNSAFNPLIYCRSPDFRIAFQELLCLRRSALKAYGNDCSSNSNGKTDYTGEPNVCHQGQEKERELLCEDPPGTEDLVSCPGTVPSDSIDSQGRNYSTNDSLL
Assay: Antagonistic effect on isolated trachea strip constriction induced by histamine (study of effect on β2-receptor)
Format: cell-based
Conditions: isolated guinea pig (Hartley) trachea strips contracted with histamine to 50% of maximum; tested compounds formulated as 10^−6 M solution; 37° C.
Output fulfilled for records whose Relaxing rate (%) is lower than 80%, not fulfilled for records at or above 80%.

> print(dat)
                                   compound            experimental.system  assigned.label
1  CC(C)(C)NC(CO)c1cc(Cl)c(N)c(C#N)c1.Cl (stereo not drawn) [drawing 6]  β2-receptor (Cavia porcellus)   not fulfilled
2  CC(C)(C)NC(CO)c1ccc(N)c(C(F)(F)F)c1.Cl (stereo not drawn) [drawing 14]  β2-receptor (Cavia porcellus)   not fulfilled
3  CC(C)(C)NC(CO)c1cc(Cl)c(N)c(C#N)c1.Cl (stereo not drawn) [drawing 8]  β2-receptor (Cavia porcellus)   not fulfilled
4  CC(C)(C)NC(CO)c1ccc(N)c(C(F)(F)F)c1.Cl (stereo not drawn) [drawing 12]  β2-receptor (Cavia porcellus)       fulfilled
5  CC(C)(C)NC(CO)c1ccc(N)c(C(F)(F)F)c1.Cl (stereo not drawn) [drawing 13]  β2-receptor (Cavia porcellus)       fulfilled
